# target.system: human SGLT1 (Homo sapiens, UniProt P13866)
# Construct: expressed in transfected cells; host or cells: CHO (Chinese hamster ovary) cells, stably transfected
# Sequence (P13866 whole entry): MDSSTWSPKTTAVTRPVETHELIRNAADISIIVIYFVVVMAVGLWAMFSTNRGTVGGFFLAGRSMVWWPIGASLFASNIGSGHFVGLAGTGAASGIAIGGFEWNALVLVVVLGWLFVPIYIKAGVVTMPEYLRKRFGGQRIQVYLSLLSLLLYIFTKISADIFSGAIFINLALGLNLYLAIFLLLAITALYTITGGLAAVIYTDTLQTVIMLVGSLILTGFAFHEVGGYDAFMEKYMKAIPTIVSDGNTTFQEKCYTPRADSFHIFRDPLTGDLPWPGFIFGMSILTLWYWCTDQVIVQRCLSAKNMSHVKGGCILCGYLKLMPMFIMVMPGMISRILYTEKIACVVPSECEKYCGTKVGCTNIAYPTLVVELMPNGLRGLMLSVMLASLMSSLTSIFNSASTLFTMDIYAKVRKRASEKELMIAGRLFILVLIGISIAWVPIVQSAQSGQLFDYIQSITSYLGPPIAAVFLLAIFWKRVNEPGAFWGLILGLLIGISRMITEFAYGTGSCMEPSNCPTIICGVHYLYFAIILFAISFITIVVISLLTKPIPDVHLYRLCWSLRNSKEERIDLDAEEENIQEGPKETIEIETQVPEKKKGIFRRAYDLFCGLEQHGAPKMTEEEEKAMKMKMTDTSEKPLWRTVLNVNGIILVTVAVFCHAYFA
# assay.info: Inhibition of sodium-dependent D-glucose transport, [14C]AMG-uptake
# Format: cell-based
assay.metric: pIC50
pIC50 is a log-scale quantity: -log10 of the concentration expressed in molar.

OC[C@H]1O[C@@H](Sc2ccccc2)[C@H](O)[C@@H](O)[C@@H]1O [Thioglucoside 3, Phenyl-1'-thio-β-D-glucopyranoside] yielded pIC50 of 5.40

The compound listed as Cc1ccc(S[C@@H]2O[C@H](CO)[C@@H](O)[C@H](O)[C@H]2O)cc1 [Thioglucoside 7, p-Tolyl-1'-thio-β-D-glucopyranoside] has a reported pIC50 of 4.28

Value of pIC50 reported for the compound Cc1ccccc1S[C@@H]1O[C@H](CO)[C@@H](O)[C@H](O)[C@H]1O [Thioglucoside 4, o-Tolyl-1'-thio-β-D-glucopyranoside] is 4.52

###

# target.system: human SGLT2 (Homo sapiens, UniProt P31639)
# Sequence (P31639 whole entry): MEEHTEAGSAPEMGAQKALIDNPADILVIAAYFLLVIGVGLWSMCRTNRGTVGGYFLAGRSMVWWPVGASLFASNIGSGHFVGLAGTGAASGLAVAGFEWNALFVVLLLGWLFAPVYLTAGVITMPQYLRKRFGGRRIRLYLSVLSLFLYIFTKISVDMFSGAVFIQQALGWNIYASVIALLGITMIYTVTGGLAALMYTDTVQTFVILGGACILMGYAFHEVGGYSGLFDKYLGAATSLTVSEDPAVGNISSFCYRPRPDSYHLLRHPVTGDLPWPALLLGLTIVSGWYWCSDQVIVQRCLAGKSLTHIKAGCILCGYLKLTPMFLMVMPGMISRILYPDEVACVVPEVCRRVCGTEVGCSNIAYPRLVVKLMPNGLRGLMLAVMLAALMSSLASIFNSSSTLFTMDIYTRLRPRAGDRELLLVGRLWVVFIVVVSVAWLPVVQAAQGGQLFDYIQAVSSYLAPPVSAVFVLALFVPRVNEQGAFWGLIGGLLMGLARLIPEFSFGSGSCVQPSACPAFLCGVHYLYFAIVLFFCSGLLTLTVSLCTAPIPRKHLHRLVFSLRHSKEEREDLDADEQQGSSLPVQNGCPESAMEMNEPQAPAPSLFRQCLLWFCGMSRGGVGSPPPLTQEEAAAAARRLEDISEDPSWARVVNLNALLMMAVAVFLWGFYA
# assay.info: Inhibition of sodium-dependent D-glucose transport, [14C]AMG-uptake
# assay.context: hSGLT2
assay.metric: IC50 (µM)
Report as a plain number; the unit µM is understood.

Here OCc1ccccc1S[C@@H]1O[C@H](CO)[C@@H](O)[C@H](O)[C@H]1O [Thioglucoside 2] was tested on human SGLT2 (Homo sapiens, UniProt P31639), and its IC50 came to 9

Form: item OC[C@H]1O[C@@H](Sc2ccccc2)[C@H](O)[C@@H](O)[C@@H]1O [Thioglucoside 3, Phenyl-1'-thio-β-D-glucopyranoside] ; test system human SGLT2 (Homo sapiens, UniProt P31639); IC50: 16

Entry OCc1ccccc1S[C@@H]1O[C@H](CO)[C@H](O)[C@H](O)[C@H]1O [Thioglucoside 6] : IC50 on human SGLT2 (Homo sapiens, UniProt P31639) = 15

Reported human SGLT2 (Homo sapiens, UniProt P31639) IC50 for item C/C(=C\CC/C(C)=C/CS[C@@H]1O[C@H](CO)[C@@H](O)[C@H](O)[C@H]1O)CO [Thioglucoside 1] was 12

// assay human SGLT2 (Homo sapiens, UniProt P31639), entry OCc1cccc(S[C@@H]2O[C@H](CO)[C@@H](O)[C@H](O)[C@H]2O)c1 [Thioglucoside 5] , IC50 value = 12

###

Can you tell me pIC50 for the items I'm about to list?
# target.system: human SGLT2 (Homo sapiens, UniProt P31639)
# assay.info: Inhibition of sodium-dependent D-glucose transport, [14C]AMG-uptake
# assay.context: hSGLT2
The scale used: pIC50 is minus the common logarithm of the concentration in molar units.

Just so you know, measured pIC50 for Cc1ccccc1S[C@@H]1O[C@H](CO)[C@@H](O)[C@H](O)[C@H]1O [Thioglucoside 4, o-Tolyl-1'-thio-β-D-glucopyranoside] came out at 4.74

Record Cc1cccc(S[C@@H]2O[C@H](CO)[C@@H](O)[C@H](O)[C@H]2O)c1 [Thioglucoside 8, m-Tolyl-1'-thio-β-D-glucopyranoside] . Reported pIC50: 4.96

Per the record, Cc1ccc(S[C@@H]2O[C@H](CO)[C@@H](O)[C@H](O)[C@H]2O)cc1 [Thioglucoside 7, p-Tolyl-1'-thio-β-D-glucopyranoside] has pIC50 of 4.49
